Test system: PC-3_[JPC-3] (Lung Adenocarcinoma)
protocolNotes: combination Emax (second highest fraction inhibited in the dose matrix, 72 h); higher = more inhibition; extreme values may be limits of the assay
assayReadout: combination Emax

Please review the following examples before continuing.
## Task Record request: combination Emax value, item CN(CCO)CC[C@H](CSc1ccccc1)Nc1ccc(S(=O)(=O)NC(=O)c2ccc(N3CCC([C@@H](O)c4ccccc4-c4ccc(Cl)cc4)CC3)cc2)cc1S(=O)(=O)C(F)(F)F [AZD4320] + CCN(CCO)CCCOc1ccc2c(Nc3cc(CC(=O)Nc4cccc(F)c4)[nH]n3)ncnc2c1 [AZD2811] (first compound max 1 µM, 7x7, partner max 1 µM)
## Result 0.147

## Task Fill in the blank: the reported combination Emax of COc1cccc(OCCCN)c1-c1cc(Nc2cnc(C#N)cn2)n[nH]1 [Prexasertib] + C[C@@H]1COCCN1C2=NC(=NC(=C2)C3(CC3)[S@](=N)(=O)C)C4=C5C=CNC5=NC=C4 [AZD6738] (first compound max 1 µM, 7x7, partner max 10 µM) is ____.
## Result 0.426

Continuing:
## Task Please look up its combination Emax: Cc1c2c(nn1C)CSCc1cc(n(C)n1)CSc1cc(c3ccccc3c1)OCCCc1c(C(=O)O)n(C)c3c-2c(Cl)ccc13 [AZD5991] + C[C@@H](Nc1cc(F)cc(F)c1)c1cc(C(=O)N(C)C)cc2c(=O)cc(N3CCOCC3)oc12 [AZD8186] (first compound max 1 µM, 7x7, partner max 3 µM)
## Result 0.348
